Data origin: ChEMBL document CHEMBL3885861

- Species on record: Rattus norvegicus
- assay_comment: Open TG-GATES - Regimen: Single
- Type: toxicity, organism-based, Sprague-Dawley
- Set-up: regimen Single, gender Male, age 6 weeks
- measurement_context: in vivo, po, 300 mg/kg, 24 h, tissue Blood, route gavage, dose level Middle
parameter_measured: Ht (%)

O=C(O)c1cc(/N=N/c2ccc(S(=O)(=O)Nc3ccccn3)cc2)ccc1O [SULFASALAZINE]
37.6
Clc1ccccc1CN1CCc2sccc2C1 [TICLOPIDINE]
39.5
CCc1cc(C(N)=S)ccn1 [ETHIONAMIDE]
42
C[C@H](CS)C(=O)N1CCC[C@H]1C(=O)O [CAPTOPRIL]
39.8

====

- Species on record: Rattus norvegicus
- assay_comment: Open TG-GATES - Regimen: Single
- Assay type: toxicity, organism-based, Sprague-Dawley
- Parameters: regimen Single, gender Male, age 6 weeks
- measurement_context: in vivo, po, 300 mg/kg, 3 h, tissue Blood, route gavage, dose level Middle
parameter_measured: Hb (g/dL)

Clc1ccccc1CN1CCc2sccc2C1
13.1
O=C(O)c1cn(C2CC2)c2cc(N3CCNCC3)c(F)cc2c1=O
13.2
O=C(O)c1cc(/N=N/c2ccc(S(=O)(=O)Nc3ccccn3)cc2)ccc1O
13.1
C[C@H](CS)C(=O)N1CCC[C@H]1C(=O)O
13.2
CCc1cc(C(N)=S)ccn1 [ETHIONAMIDE]
13.7

====

Here, each record is paired with measured Mono data.
- Species on record: Rattus norvegicus
- assay_comment: Open TG-GATES - Regimen: Single
- Format: toxicity, organism-based, Sprague-Dawley
- Parameters: regimen Single, gender Male, age 6 weeks
- measurement_context: in vivo, po, 0 mg/kg, 3 h, tissue Blood, route gavage, dose level Control
parameter_measured: Mono

C[C@H](CS)C(=O)N1CCC[C@H]1C(=O)O
6%
O=C(O)c1cn(C2CC2)c2cc(N3CCNCC3)c(F)cc2c1=O
6%
CSc1ccc2c(c1)N(CCC1CCCCN1C)c1ccccc1S2 (configuration not stated)
7.4%
Clc1ccccc1CN1CCc2sccc2C1
3%
Cn1c(=O)c2[nH]cnc2n(C)c1=O.O
1.8%
CN(C)CCC=C1c2ccccc2CCc2ccccc21
3.4%
CC(=O)Oc1ccccc1C(=O)O
2.2%

====

- Species on record: Rattus norvegicus
- assay_comment: Open TG-GATES - Regimen: Single
- Assay type: toxicity, organism-based, Sprague-Dawley
- Set-up: regimen Single, gender Male, age 6 weeks
- measurement_context: in vivo, po, 0 mg/kg, 24 h, tissue Blood, route gavage, dose level Control
Consider the following compounds and their measured Eos readings.
parameter_measured: Eos (%)

CSc1ccc2c(c1)N(CCC1CCCCN1C)c1ccccc1S2 (stereo not given)
0.8
COc1cc2c(c3oc(=O)c4c(c13)CCC4=O)[C@@H]1C=CO[C@@H]1O2
1
CCc1cc(C(N)=S)ccn1 [ETHIONAMIDE]
1.2
Cn1c(=O)c2[nH]cnc2n(C)c1=O.O
1
O=C(O)c1cc(/N=N/c2ccc(S(=O)(=O)Nc3ccccn3)cc2)ccc1O
1

====

- Species on record: Rattus norvegicus
- assay_comment: Open TG-GATES - Regimen: Daily Repeat
- Format: toxicity, organism-based, Sprague-Dawley
- Set-up: regimen Daily Repeat, gender Male, age 6 weeks
- measurement_context: in vivo, po, 0 mg/kg, […], tissue Plasma, route gavage, dose level Control, time 7 day
Recorded measurements of A/G, one per entry
parameter_measured: A/G

O=C(O)c1cc(/N=N/c2ccc(S(=O)(=O)Nc3ccccn3)cc2)ccc1O
1.4
CCc1cc(C(N)=S)ccn1 [ETHIONAMIDE]
1.6
NC(=O)N/N=C/c1ccc([N+](=O)[O-])o1
0.8
Cn1c(=O)c2[nH]cnc2n(C)c1=O.O
1.2
CN(C)CCC=C1c2ccccc2CCc2ccccc21
0.8
COc1ccc2c(c1)c(CC(=O)O)c(C)n2C(=O)c1ccc(Cl)cc1
2
COc1ccc(Cc2nccc3cc(OC)c(OC)cc23)cc1OC
1.2

====

- Species: Rattus norvegicus
- assay_comment: Open TG-GATES - Regimen: Single
- Assay type: toxicity, organism-based, Sprague-Dawley
- Set-up: regimen Single, gender Male, age 6 weeks
- measurement_context: in vivo, po, 1000 mg/kg, 3 h, tissue Blood, route gavage, dose level High
Known Plat of a selection of compounds
parameter_measured: Plat

C[C@H](CS)C(=O)N1CCC[C@H]1C(=O)O [CAPTOPRIL]
118.1 x10_4/uL
O=C(O)c1cc(/N=N/c2ccc(S(=O)(=O)Nc3ccccn3)cc2)ccc1O [SULFASALAZINE]
116.4 x10_4/uL
Clc1ccccc1CN1CCc2sccc2C1 [TICLOPIDINE]
128.4 x10_4/uL
CCc1cc(C(N)=S)ccn1 [ETHIONAMIDE]
112.8 x10_4/uL
O=C(O)c1cn(C2CC2)c2cc(N3CCNCC3)c(F)cc2c1=O [CIPROFLOXACIN]
101.8 x10_4/uL

====

- Organism: Rattus norvegicus
- assay_comment: Open TG-GATES - Regimen: Single
- Type: toxicity, organism-based, Sprague-Dawley
- Parameters: regimen Single, gender Male, age 6 weeks
- measurement_context: in vivo, po, 1000 mg/kg, 6 h, tissue Plasma, route gavage, dose level High
parameter_measured: GLC (mg/dL)

O=C(O)c1cc(/N=N/c2ccc(S(=O)(=O)Nc3ccccn3)cc2)ccc1O [SULFASALAZINE]
190.8
C[C@H](CS)C(=O)N1CCC[C@H]1C(=O)O [CAPTOPRIL]
211.4
CCc1cc(C(N)=S)ccn1 [ETHIONAMIDE]
192.4
Clc1ccccc1CN1CCc2sccc2C1 [TICLOPIDINE]
190.8
O=C(O)c1cn(C2CC2)c2cc(N3CCNCC3)c(F)cc2c1=O [CIPROFLOXACIN]
185.8

====

- Species: Rattus norvegicus
- assay_comment: Open TG-GATES - Regimen: Single
- Format: toxicity, organism-based, Sprague-Dawley
- Design: regimen Single, gender Male, age 6 weeks
- measurement_context: in vivo, po, 0 mg/kg, 6 h, tissue Plasma, route gavage, dose level Control
The following molecules are listed with their measured RALB values.
parameter_measured: RALB (g/dL)

Cn1c(=O)c2[nH]cnc2n(C)c1=O.O
2.9
NC(=O)N1c2ccccc2C=Cc2ccccc21 [CARBAMAZEPINE]
3.3
NC(=O)N/N=C/c1ccc([N+](=O)[O-])o1
2.4
CC(=O)Oc1ccccc1C(=O)O
3.4
CCc1cc(C(N)=S)ccn1 [ETHIONAMIDE]
3.3
CN(C)CCC=C1c2ccccc2CCc2ccccc21
2.5
CSc1ccc2c(c1)N(CCC1CCCCN1C)c1ccccc1S2 (configuration not stated)
3.8
O=C(O)c1cn(C2CC2)c2cc(N3CCNCC3)c(F)cc2c1=O
3.7
C[C@H](CS)C(=O)N1CCC[C@H]1C(=O)O
3.6
COc1ccc(Cc2nccc3cc(OC)c(OC)cc23)cc1OC
2.9
Clc1ccccc1CN1CCc2sccc2C1
3.2
O=C(O)c1cc(/N=N/c2ccc(S(=O)(=O)Nc3ccccn3)cc2)ccc1O
3.3

====

- Species: Rattus norvegicus
- assay_comment: Open TG-GATES - Regimen: Daily Repeat
- Type: toxicity, organism-based, Sprague-Dawley
- Set-up: regimen Daily Repeat, gender Male, age 6 weeks
- measurement_context: in vivo, po, 0 mg/kg, […], tissue Blood, route gavage, dose level Control, time 7 day
The entries below come with measured MCV values attached.
parameter_measured: MCV (fL)

COc1ccc(Cc2nccc3cc(OC)c(OC)cc23)cc1OC [PAPAVERINE]
61.6
C[C@H](CS)C(=O)N1CCC[C@H]1C(=O)O [CAPTOPRIL]
63.9
CSc1ccc2c(c1)N(CCC1CCCCN1C)c1ccccc1S2 (stereo unspecified) [THIORIDAZINE]
65
O=C(O)c1cn(C2CC2)c2cc(N3CCNCC3)c(F)cc2c1=O [CIPROFLOXACIN]
65.5
CCc1cc(C(N)=S)ccn1 [ETHIONAMIDE]
62.9
NC(=O)N1c2ccccc2C=Cc2ccccc21 [CARBAMAZEPINE]
60.5

====

- Species: Rattus norvegicus
- assay_comment: Open TG-GATES - Regimen: Single
- Type: toxicity, organism-based, Sprague-Dawley
- Set-up: regimen Single, gender Male, age 6 weeks
- measurement_context: in vivo, po, 300 mg/kg, 24 h, tissue Blood, route gavage, dose level Middle
Fbg: recorded values
parameter_measured: Fbg (mg/dL)

O=C(O)c1cc(/N=N/c2ccc(S(=O)(=O)Nc3ccccn3)cc2)ccc1O
233
Clc1ccccc1CN1CCc2sccc2C1
228.2
O=C(O)c1cn(C2CC2)c2cc(N3CCNCC3)c(F)cc2c1=O
214.4
CCc1cc(C(N)=S)ccn1 [ETHIONAMIDE]
194.8

====

- Organism: Rattus norvegicus
- assay_comment: Open TG-GATES - Regimen: Single
- Assay type: toxicity, organism-based, Sprague-Dawley
- Parameters: regimen Single, gender Male, age 6 weeks
- measurement_context: in vivo, po, 100 mg/kg, 9 h, tissue Plasma, route gavage, dose level Low
parameter_measured: TBIL (mg/dL)

CCc1cc(C(N)=S)ccn1 [ETHIONAMIDE]
0.4
C[C@H](CS)C(=O)N1CCC[C@H]1C(=O)O
0.3
O=C(O)c1cc(/N=N/c2ccc(S(=O)(=O)Nc3ccccn3)cc2)ccc1O
0.1
O=C(O)c1cn(C2CC2)c2cc(N3CCNCC3)c(F)cc2c1=O
0.2
Clc1ccccc1CN1CCc2sccc2C1
0.1
